EXPERIMENTAL_PROTOCOL: Toxicity of DB-DBA, CellTiter 96 AQueous One Solution cell viability assay, 72 h
Type: cell-based, human
MEASUREMENT_PARAMETERS: human, MDA-MB231 breast cancer cells; DB-DBA 20 microgram/ml, 72 h
VALUE_TYPE: viability at 72 h, 20 microgram/ml (%)
Report the value in % with no unit label.

Ask: Provide only the value of recorded viability at 72 h, 20 microgram/ml for O=C(Oc1cc(O)cc(O)c1C(=O)O)c1ccc(O)c(O)c1 [DB-DBA]
Result: 95

###

EXPERIMENTAL_PROTOCOL: Toxicity of DB-DBA, CellTiter 96 AQueous One Solution cell viability assay, 72 h
Format: cell-based, human
MEASUREMENT_PARAMETERS: human, MDA-MB231 breast cancer cells; DB-DBA 250 microgram/ml, 72 h
VALUE_TYPE: viability at 72 h, 250 microgram/ml (%)
Report the value in % with no unit label.

Ask: Provide only the value of recorded viability at 72 h, 250 microgram/ml for O=C(Oc1cc(O)cc(O)c1C(=O)O)c1ccc(O)c(O)c1 [DB-DBA]
Result: 19

###

EXPERIMENTAL_PROTOCOL: Toxicity of DB-DBA, CellTiter 96 AQueous One Solution cell viability assay, 72 h
Format: cell-based, human
MEASUREMENT_PARAMETERS: human, MDA-MB231 breast cancer cells; DB-DBA 50 microgram/ml, 72 h
VALUE_TYPE: viability at 72 h, 50 microgram/ml
For clarity, give the value followed by its unit.

Ask: Provide only the value of recorded viability at 72 h, 50 microgram/ml for `O=C(Oc1cc(O)cc(O)c1C(=O)O)c1ccc(O)c(O)c1`
Result: 62%

###

EXPERIMENTAL_PROTOCOL: Toxicity of DB-DBA, CellTiter 96 AQueous One Solution cell viability assay, 72 h
Format: cell-based, human
MEASUREMENT_PARAMETERS: human, MDA-MB231 breast cancer cells; DB-DBA 100 microgram/ml, 72 h
VALUE_TYPE: viability at 72 h, 100 microgram/ml (%)
Report the value in % with no unit label.

Ask: Provide only the value of recorded viability at 72 h, 100 microgram/ml for O=C(Oc1cc(O)cc(O)c1C(=O)O)c1ccc(O)c(O)c1 [DB-DBA]
Result: 41
